Study system: UniProtKB P12268
Assay summary: biochemical
Measurement conditions: read-out: Ki
Recorded Ki, one value per entry.

{"columns": ["Molecule", "Ki"],
 "data": [
  ["COc1cc(NC(=O)Nc2cccc(CNC(=O)OC(CCN(CC(C)C)CC3CC3)c3ccccc3)c2)ccc1-c1cnco1 (stereo not drawn)", "> 50 nM"],
  ["COc1cc(NC(=O)Nc2cccc(CNC(=O)O[C@H](CCl)CC#N)c2)ccc1-c1cnco1", "< 10 nM"],
  ["CCCN(CCC)CCC(OC(=O)NCc1cccc(NC(=O)Nc2ccc(-c3cnco3)c(OC)c2)c1)c1ccccc1 (stereo not drawn)", "> 50 nM"],
  ["CCN(CC)C[C@@H](OC(=O)NCc1cccc(NC(=O)Nc2ccc(-c3cnco3)c(OC)c2)c1)c1ccccc1", "< 10 nM"],
  ["COc1cc(NC(=O)Nc2cccc(CNC(=O)O[C@H](CN(CC(C)C)C(C)C)c3ccccc3)c2)ccc1-c1cnco1", "> 50 nM"],
  ["COc1cc(NC(=O)Nc2cccc(CNC(=O)OCC(OCc3ccco3)N(CCC#N)CC(C)C)c2)ccc1-c1cnco1 (stereo not drawn)", "< 10 nM"],
  ["COc1cc(NC(=O)Nc2cccc(CNC(=O)O[C@H](CO)CCC#N)c2)ccc1-c1cnco1", "< 10 nM"],
  ["COc1cc(NC(=O)Nc2cccc(CNC(=O)OCCC#N)c2)ccc1-c1cnco1", "< 10 nM"],
  ["CCCN(CCC)CC(OC(=O)NCc1cccc(NC(=O)Nc2ccc(-c3cnco3)c(OC)c2)c1)c1ccccc1 (stereo not drawn)", "> 50 nM"],
  ["COc1cc(NC(=O)Nc2cccc(CNC(=O)OC(CC#N)C(F)(F)F)c2)ccc1-c1cnco1 (stereo not drawn)", "< 10 nM"],
  ["CNCCC(OC(=O)NCc1cccc(NC(=O)Nc2ccc(-c3cnco3)c(OC)c2)c1)c1ccccc1 (stereo not drawn)", "< 10 nM"],
  ["CC[C@H](CO)OC(=O)N[C@H](C)c1cccc(NC(=O)Nc2ccc(-c3cnco3)c(OC)c2)c1", "> 50 nM"],
  ["CCC(NC(=O)O[C@@H](CC)CC#N)c1cccc(NC(=O)Nc2ccc(C#N)c(OC)c2)c1 (stereo partly drawn)", "> 50 nM"],
  ["CC[C@H](COCc1ccccc1)OC(=O)NCc1cccc(NC(=O)Nc2ccc(-c3cnco3)c(OC)c2)c1", "< 10 nM"],
  ["COc1cc(NC(=O)Nc2cccc(CNC(=O)OCCN(C)CCC#N)c2)ccc1-c1cnco1", "< 10 nM"]
]}
